target: cdk2/cyclin E (Homo sapiens, UniProt P24941); experiment: Assay for inhibition of cdk2 (cdk2/cyclin E), 32P filter plate; settings: retinoblastoma protein substrate, read-out: CYCK2E IC50
measured.quantity: pIC50
Numbers only, as −log10 of the molar value.

Reference set (2 entries):
| chemical.structure | pIC50 |
| --- | --- |
| O=S1(=O)CCc2cnc(Nc3ccc(N4CCNCC4)cc3)nc2N1C1CCCC1 | 6.03 |
| CC1(C)CN(c2ccc(Nc3ncc4c(n3)N(C3CCCC3)S(=O)(=O)C=C4)cc2)CCN1 | 6.22 |

Provide each entry's pIC50 from the list below.
1. O=S1(=O)C=Cc2cnc(Nc3ccc(N4CCNCC4)cc3)nc2N1C1CCCC1
2. CC1=Cc2cnc(Nc3ccc(N4CCNCC4)cc3)nc2N(C2CCCC2)S1(=O)=O

Result:
1. 6.84
2. 4.59

###

target: cdk4/Cyclin D (Homo sapiens, UniProt P11802); assay: Assay for inhibition of cdk4/Cyclin D, 32P filter plate; settings: cdk4, 25 μM ATP, retinoblastoma protein substrate; read-out: CYCK4 IC50
Sequence (P11802 whole entry, species assumed): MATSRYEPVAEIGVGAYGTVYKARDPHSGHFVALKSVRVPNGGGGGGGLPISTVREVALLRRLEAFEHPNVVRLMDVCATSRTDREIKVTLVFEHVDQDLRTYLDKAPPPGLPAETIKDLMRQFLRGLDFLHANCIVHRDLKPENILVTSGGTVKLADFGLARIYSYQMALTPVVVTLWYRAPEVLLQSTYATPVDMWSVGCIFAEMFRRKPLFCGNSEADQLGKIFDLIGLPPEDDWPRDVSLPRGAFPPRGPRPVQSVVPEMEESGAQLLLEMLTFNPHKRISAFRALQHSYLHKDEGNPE
Sequence (P24385 whole entry partner, species assumed): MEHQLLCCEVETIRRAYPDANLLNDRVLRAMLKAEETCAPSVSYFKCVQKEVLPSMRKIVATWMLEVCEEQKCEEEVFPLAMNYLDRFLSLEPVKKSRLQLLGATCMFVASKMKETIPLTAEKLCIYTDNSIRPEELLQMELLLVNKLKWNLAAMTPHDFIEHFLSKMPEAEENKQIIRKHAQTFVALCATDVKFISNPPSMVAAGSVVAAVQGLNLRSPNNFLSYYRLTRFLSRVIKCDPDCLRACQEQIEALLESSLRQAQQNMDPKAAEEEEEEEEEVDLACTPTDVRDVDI
Exercise: state measured pIC50 for each of the compounds provided.
Answers are plain numbers, as −log10 of the molar value.

| compound | study.system | pIC50 |
| --- | --- | --- |
| CC1=Cc2cnc(Nc3ccc(N4CCNCC4)cc3)nc2N(C2CCCC2)S1(=O)=O [Compound 10] | cdk4/Cyclin D (Homo sapiens, UniProt P11802) | 7.03 |

Provide each entry's pIC50 from the list below.
1. CC1(C)CN(c2ccc(Nc3ncc4c(n3)N(C3CCCC3)S(=O)(=O)C=C4)cc2)CCN1 [Compound 6]
2. O=S1(=O)C=Cc2cnc(Nc3ccc(N4CCNCC4)cc3)nc2N1C1CCCC1 [Compound 4]
3. O=S1(=O)CCc2cnc(Nc3ccc(N4CCNCC4)cc3)nc2N1C1CCCC1 [Compound 16]
4. CCC1=Cc2cnc(Nc3ccc(N4CCNCC4)cc3)nc2N(C2CCCC2)S1(=O)=O [Compound 14]

Result:
1: 8.89; 2: 8.30; 3: 7.35; 4: 7.30

###

Exercise: state measured pIC50 for each of the compounds provided.
biological target: cdk1/cyclin B (Homo sapiens, UniProt P06493); experiment: Assay for inhibition of cdk1 (cdk1/cyclin B), 32P filter plate; details: retinoblastoma protein substrate, read-out: CYCK1B IC50
Sequence (P06493 whole entry, species assumed): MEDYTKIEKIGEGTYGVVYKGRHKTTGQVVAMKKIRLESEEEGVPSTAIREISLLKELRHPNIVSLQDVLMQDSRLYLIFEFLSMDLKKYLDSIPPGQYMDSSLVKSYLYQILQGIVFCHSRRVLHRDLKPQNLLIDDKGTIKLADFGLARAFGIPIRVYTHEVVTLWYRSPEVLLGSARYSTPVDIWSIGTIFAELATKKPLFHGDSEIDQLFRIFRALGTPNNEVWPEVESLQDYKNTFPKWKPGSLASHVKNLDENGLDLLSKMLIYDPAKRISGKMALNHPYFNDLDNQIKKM
Sequence (P14635 whole entry partner, species assumed): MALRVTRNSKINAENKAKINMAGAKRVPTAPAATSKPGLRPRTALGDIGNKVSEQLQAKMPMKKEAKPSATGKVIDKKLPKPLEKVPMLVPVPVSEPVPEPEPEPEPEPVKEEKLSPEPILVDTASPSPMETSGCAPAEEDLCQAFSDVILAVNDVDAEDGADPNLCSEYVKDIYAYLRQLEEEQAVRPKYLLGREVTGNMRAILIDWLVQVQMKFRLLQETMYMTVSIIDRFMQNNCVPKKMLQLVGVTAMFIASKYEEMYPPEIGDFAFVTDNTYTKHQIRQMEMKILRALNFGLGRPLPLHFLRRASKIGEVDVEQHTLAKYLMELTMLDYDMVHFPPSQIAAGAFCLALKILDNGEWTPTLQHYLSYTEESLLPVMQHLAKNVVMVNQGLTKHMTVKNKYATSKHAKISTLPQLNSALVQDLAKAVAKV
Answers are plain numbers, as −log10 of the molar value.

Provide each entry's pIC50 from the list below.
1. O=S1(=O)CCc2cnc(Nc3ccc(N4CCNCC4)cc3)nc2N1C1CCCC1
2. CC1(C)CN(c2ccc(Nc3ncc4c(n3)N(C3CCCC3)S(=O)(=O)C=C4)cc2)CCN1
3. O=S1(=O)C=Cc2cnc(Nc3ccc(N4CCNCC4)cc3)nc2N1C1CCCC1
4. CC1=Cc2cnc(Nc3ccc(N4CCNCC4)cc3)nc2N(C2CCCC2)S1(=O)=O

Result:
5.38
5.44
6.44
4.44

###

Exercise: state measured IC50 for each of the compounds provided.
target: human FGF1(flg) receptor tyrosine kinase (Homo sapiens, UniProt P11362); construct: amplify a fragment of DNA that codes for the intracellular tyrosine kinase domain; crude cell lysate used; assay: FGF receptor (FGFr) tyrosine kinase assay; settings: FGFr enzyme lysate, Poly (4:1) glutamate-tyrosine substrate
Sequence (P11362 478-767 limits assumed): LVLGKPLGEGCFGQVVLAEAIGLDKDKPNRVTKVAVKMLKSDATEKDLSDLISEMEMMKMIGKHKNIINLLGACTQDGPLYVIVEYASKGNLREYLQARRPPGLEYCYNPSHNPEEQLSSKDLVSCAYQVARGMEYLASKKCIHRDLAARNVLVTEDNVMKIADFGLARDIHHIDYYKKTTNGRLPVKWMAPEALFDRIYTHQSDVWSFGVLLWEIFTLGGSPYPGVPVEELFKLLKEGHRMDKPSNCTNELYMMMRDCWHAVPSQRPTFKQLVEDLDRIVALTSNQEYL
Answers are plain numbers, in nM.

Reference set (2 entries):
| compound | study.system | IC50 / nM |
| --- | --- | --- |
| CCC1=Cc2cnc(Nc3ccc(N4CCNCC4)cc3)nc2N(C2CCCC2)S1(=O)=O [Compound 14] | human FGF1(flg) receptor tyrosine kinase (Homo sapiens, UniProt P11362) | 1030 |
| CC1=Cc2cnc(Nc3ccc(N4CCNCC4)cc3)nc2N(C2CCCC2)S1(=O)=O [Compound 10] | human FGF1(flg) receptor tyrosine kinase (Homo sapiens, UniProt P11362) | 575 |

Now for the compound whose IC50 we want.
Q: Returns the measured IC50 for the input compound. Input: O=S1(=O)C=Cc2cnc(Nc3ccc(N4CCNCC4)cc3)nc2N1C1CCCC1 [Compound 4]
Result: 179

###

biological target: cdk2/cyclin A (Homo sapiens, UniProt P24941); assay: Assay for inhibition of cdk2 (cdk2/cyclin A), 32P filter plate; conditions: retinoblastoma protein substrate, read-out: CYCK2A IC50
measured.quantity: pIC50
Answers are plain numbers, as −log10 of the molar value.

Reference set (4 entries):
| compound | experimental.value |
| --- | --- |
| O=S1(=O)CCc2cnc(Nc3ccc(N4CCNCC4)cc3)nc2N1C1CCCC1 [Compound 16] | 6.03 |
| CC1=Cc2cnc(Nc3ccc(N4CCNCC4)cc3)nc2N(C2CCCC2)S1(=O)=O [Compound 10] | 5.26 |
| CCC1=Cc2cnc(Nc3ccc(N4CCNCC4)cc3)nc2N(C2CCCC2)S1(=O)=O [Compound 14] | 5.40 |
| O=S1(=O)C=Cc2cnc(Nc3ccc(N4CCNCC4)cc3)nc2N1C1CCCC1 [Compound 4] | 6.97 |

Q: Returns the measured pIC50 for the input compound. Input: CC1(C)CN(c2ccc(Nc3ncc4c(n3)N(C3CCCC3)S(=O)(=O)C=C4)cc2)CCN1 [Compound 6]
Result: 6.53
